# target.or.system: cynomolgus PAI-1 (cynomolgus, UniProt P05121 24-402 (human entry), limits assumed)
# assay.name: cell-based or functional assay
Each entry below carries its reported Chromogenic IC50 ratio cyno/human.
Expressed in fold, but write only the number.

binder | observed.result
Antibody 07 scFv (scFv) QVQLQQSGAEVKKPGSSVKVSCKASGGTFSSYAISWVRQAPGQGLEWVGGIIPTFGTANYAQKFQGRVTITADESTSTAYMELSGLRSEDTAVYYCAREKRQWLEGHFDYWGRGTPVTVSSDIQMAQSPSFLSASIGDRVTITCRASEGIYHELAWYQQKPGKAPKLLIYRASSLASGAPSRFSGSGSGTDFTLTISSLQPDDFATYYCQQYSNYPLTFGGGTKLEIK | 0.6
Antibody 02 scFv (scFv) QVQLVQSGAEVKKPGSSVKVSCKASGGTFSSYAISWVRQAPGQGLEWMGGIIPTFGTANYAQKFQGRVTITADESTSTAYMELSSLRSEDTAVYYCAREKRQWLEGHFDYWGRGTLVTVSSDIQMTQSPSTLSASVGDRVTITCRASEGIYHSLAWYQQKPGKAPKLLIYKASSLASGVPSRFSGSGSGTEFTLTISSLQPDDFATYYCQQYSDYPLTFGGGTKVEIK | 1.8
Antibody 26 scFv (scFv) QVQLQQSGAEVKKPGTSVKVSCKASGGTFSSYAISWVRQAPGQGLEWMGGIIPIFGTANYAQKFQGRVTITADESTSTAYMELSSLRSEDTAVYYCAREKRQWLEGHFDYWGRGTPVTVSSDIQMTQSPSFLSASIGDRVTITCRASEGIYHTLAWYQQKPGKAPKLLIYRASSLASGAPSRFSGSGSGTDFTLTISSLQPDDFATYYCQQYSNYPLTFGGGTKLEIK | 0.3
Antibody 10 scFv (scFv) QVQLQQSGAEVKKPGSSVKVSCKASGGTFSSYAISWVRQAPGQGLEWMGGIIPTFGTANYAQKFQGRVTITADESTSTAYMELSSLRSEDTAVYYCAREKRQWLEGHFDYWGRGTPVTVSSDIQMTQSPSFLSASIGDRVAITCRASEGIYHSLAWYQQKPGKAPKLLIYRASSLASGAPSRFSGSGSGTDFTLTISSLQPDDFATYYCQQYSNYPLTFGGGTRLEIK | 0.2
Antibody 01 IgG1, not germlined (antibody, V domains shown) VH: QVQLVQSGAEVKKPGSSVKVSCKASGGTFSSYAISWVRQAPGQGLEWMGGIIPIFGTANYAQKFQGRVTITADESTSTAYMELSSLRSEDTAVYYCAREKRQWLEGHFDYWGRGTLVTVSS VL: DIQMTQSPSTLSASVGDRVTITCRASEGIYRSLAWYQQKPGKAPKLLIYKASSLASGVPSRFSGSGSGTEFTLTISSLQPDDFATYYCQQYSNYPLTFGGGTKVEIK | 0.4

The binder listed as Antibody 05 scFv (scFv) QVQLQQSGAEVKKPGSSVKVSCKASGGTFSSYAISWVRQAPGQGLEWMGGIIPTFSTANYAQKFRGRVTITADESTSTAYMELSGLRSEDTAVYYCAREKRQWLEGHFDYWGRGTPVTVSSDIQMTQSPSFLSASIGDRVTITCRASEGIYHQLAWYQQKPGKAPKLLIYRASSLASGAPSRFSGSGSGTDFTLTISSLQPDDFATYYCQQYSNYPLTFGGGTKLEIK shows Chromogenic IC50 ratio cyno/human equal to 0.1

The binder listed as Antibody 13 scFv (scFv) QVQLQQSGAEVKKPGSSVKVSCKASGGTFSSYAISWVRQAPGQGLEWMGGIIPTFGTANYAQKFQGRVTITADESTSTAYMELSDLRSEDTAVYYCAREKRQWLEGHFDYWGRGTPVTVSSDIQMTQSPSFLSASIGDRVTITCRASEGIYHSLAWYQQKPGKAPKLLIYRASSLASGAPSRFSGSGSGTDFTLTISSLQPDDFATYYCQQYSNYPLTFGGGTKLEIK shows Chromogenic IC50 ratio cyno/human equal to 0.4

The binder listed as Antibody 19 scFv (scFv) QVQLQQSGAEVKKPGSSVKVSCKASGGTFSSYAISWVRQAPGQGLEWMGGIIPIFDTANYAQKFQGRVTITADESTSTAYMELSGLRSEDTAVYYCARERRQWLEGHFDYWGRGTPVTVSSDIRMTQSPSFLSASIGDRVTITCRASEGIYHELAWYQQKPGKAPKLLIYRASSLASGAPSRFSGSGSGTEFTLTISSLQPDDFATYYCQQYSNYPLTFGGGTKLEIK shows Chromogenic IC50 ratio cyno/human equal to 0.4

The binder listed as Antibody 21 scFv (scFv) PVQLQQSGAEVKKPGSSVKVSCKASGGTFSSYAISWVRQAPGQGLEWMGGIIPTFGTANYAQKFQGRVTITADESTSTAYMELSGLRSEDTAVYYCAREKRQWLEGHFDYWGRGTPVTVSSDIQMAQSPSFLSASIGDRVTITCRASEGIYHNLAWYQQKPGKAPKLLIYRASSLASGAPSRFSGSGSGTDFTLTISSLQPDDFATYYCQQYSNYPLTFGGGTKLEIK shows Chromogenic IC50 ratio cyno/human equal to 0.4

The binder listed as Antibody 08 scFv (scFv) QVQLVQSGAEVKKPGSSVKVSCKASGGTFSSYAISWVRQAPGQGLEWMGGIIPTFGTANYAQKFQGRVTITADESTSTAYMELSSLRSEDTAVYYCARERRQWLEGHFDYWGRGTLVTVSSDIQMTQSPSTLSASVGDRVTITCRASEGIYHNLAWYQQKPGKAPKLLIYKASSLASGVPSRFSGSRSGTEFTLTISSLQPDDFATYYCQQYSNYPLTFGGGTKVEIK shows Chromogenic IC50 ratio cyno/human equal to 0.3
